target: NHERF4_1, Q86UT5-2; assay: holdup assay; set-up: key: below the threshold = too weak to quantify, mostly under pKd 3.1 to 4; settings: plain residues with an end cap or a label only (N-terminal biotin on a linker: ahx)
Sequence (Q86UT5 other isoform, or with tags, fused parts or gaps): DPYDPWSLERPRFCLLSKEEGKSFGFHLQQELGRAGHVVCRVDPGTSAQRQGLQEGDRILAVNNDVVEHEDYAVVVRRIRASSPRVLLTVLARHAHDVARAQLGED
property_name: pKd

- TESNLQTSSC [CGN, Q9P2M7]: 3.62
- QNTDDVQTSF [ACE2, Q9BYF1]: 3.65
- QDEKVKESYV [ABCA1, O95477]: 3.48
